Taken from patent US9266940.

Reported Ratio [(IC50/nM) high HSA]/[(IC50/nM) low HSA] values for the following binders.
study_target: T1, human GLP-1 receptor (human, UniProt P43220 24-463)
T1 construct: whole, on cells; Used as purified plasma membranes of the stably transfected BHK cell line, not as intact cells; also called hGLP-1
experiment: SPA displacement assay; IC50 at 2.0% HSA over IC50 at 0.001% HSA
Numbered stars: 1 amine (or outer) side, 2 acyl side, 3 side chain; on linkers, the order of the positions; unused ones are H or OH. Square brackets hold non-standard residues; d marks the D form. Side chains are listed from the residue outwards. Ends that are not written are not given here. * marks the point of attachment. Decanoyl(10-(4-HOOC-PhO)) = O=C(O)c1ccc(OCCCCCCCCCC(=O)*)cc1; γGlu = O=C(O)[C@H](CCC(=O)[*:2])N[*:1]; C14 diacid = O=C(O)CCCCCCCCCCCCC(=O)*; AEEA = NCCOCCOCC(=O)O; Aib = CC(C)(N)C(=O)O

Answered examples (3):
The measured Ratio [(IC50/nM) high HSA]/[(IC50/nM) low HSA] associated with H[Aib]EGTK([AEEA-AEEA-γGlu-C14 diacid])TSDVSSYLEEQAARK([AEEA-AEEA-γGlu-C14 diacid])FIAHLVQGRG (also called 18) reads 2.1

Given item HAEGTFTSDVSSYLEK([γGlu-AEEA-AEEA-C14 diacid])QAVRK([γGlu-AEEA-AEEA-C14 diacid])FIEWLVQGRG (also called 20) , the value recorded as its Ratio [(IC50/nM) high HSA]/[(IC50/nM) low HSA] is 1750

// HAEGTFTSDVSSYLEK([AEEA-AEEA-γGlu-C14 diacid])QAVRK([AEEA-AEEA-γGlu-C14 diacid])FIEWLVQGRG (also called 11) : Ratio [(IC50/nM) high HSA]/[(IC50/nM) low HSA] value = 926

Now look at this entry.
The recorded Ratio [(IC50/nM) high HSA]/[(IC50/nM) low HSA] for H[Aib]EGTFTSDVSSYK([AEEA-AEEA-γGlu-Decanoyl(10-(4-HOOC-PhO))])EEQAARK([AEEA-AEEA-γGlu-Decanoyl(10-(4-HOOC-PhO))])FIEWLVG is 79
